// provenance: patent US11390812B2

assay: Measurement of solution absorption spectrum (colorability evaluation); assay type: physicochemical; settings: chloroform solution, 1 cm cell; wavelength of maximum light absorption coefficient in the region of 300 nm or more
EXPERIMENTAL_ENDPOINT: λmax

1) C=CC(=O)OCCc1ccc(C#Cc2ccc(COc3ccc(C#Cc4ccc(CCOC(=O)C=C)cc4)cc3C(F)(F)F)cc2)cc1 : 309 nm
2) C=CC(=O)OCCc1ccc(C#Cc2ccc(COc3ccc(C#Cc4ccc(CCOC(=O)C=C)cc4)cc3C(=O)OC)cc2)cc1 : 308 nm
3) C=CC(=O)OCCc1ccc(C#Cc2ccc(COc3ccc(C#Cc4ccc(CCOC(=O)C=C)cc4)cc3C)cc2)cc1 : 308 nm
4) CC(=O)OCCCCCCCCCCOc1ccc(C#Cc2ccc(OC(=O)c3ccc(C#Cc4ccc(OCCCCCCCCCCOC(C)=O)c(F)c4)cc3)cc2)cc1F [Compound B-1, reference compound] : 315 nm
5) C=CC(=O)OCCc1ccc(C#Cc2ccc(COc3ccc(C#Cc4ccc(CCOC(=O)C=C)cc4)cc3)cc2)cc1 : 309 nm
6) C=CC(=O)OCCc1ccc(C#Cc2ccc(COc3ccc(C#Cc4ccc(CCOC(=O)C=C)cc4)cc3C(=O)OC(C)(C)C)cc2)cc1 : 309 nm
7) C=CC(=O)OCCc1ccc(C#Cc2ccc(CCc3ccc(C#Cc4ccc(CCOC(=O)C=C)cc4)cc3)cc2)cc1 : 309 nm
8) C=CC(=O)OCCc1ccc(C#Cc2ccc(COc3ccc(C#Cc4ccc(CCOC(=O)C=C)cc4)cc3C(C)(C)C)cc2)cc1 : 308 nm
